Target: p110β/p85α (Homo sapiens (Human))
Sequence (P42338 whole entry): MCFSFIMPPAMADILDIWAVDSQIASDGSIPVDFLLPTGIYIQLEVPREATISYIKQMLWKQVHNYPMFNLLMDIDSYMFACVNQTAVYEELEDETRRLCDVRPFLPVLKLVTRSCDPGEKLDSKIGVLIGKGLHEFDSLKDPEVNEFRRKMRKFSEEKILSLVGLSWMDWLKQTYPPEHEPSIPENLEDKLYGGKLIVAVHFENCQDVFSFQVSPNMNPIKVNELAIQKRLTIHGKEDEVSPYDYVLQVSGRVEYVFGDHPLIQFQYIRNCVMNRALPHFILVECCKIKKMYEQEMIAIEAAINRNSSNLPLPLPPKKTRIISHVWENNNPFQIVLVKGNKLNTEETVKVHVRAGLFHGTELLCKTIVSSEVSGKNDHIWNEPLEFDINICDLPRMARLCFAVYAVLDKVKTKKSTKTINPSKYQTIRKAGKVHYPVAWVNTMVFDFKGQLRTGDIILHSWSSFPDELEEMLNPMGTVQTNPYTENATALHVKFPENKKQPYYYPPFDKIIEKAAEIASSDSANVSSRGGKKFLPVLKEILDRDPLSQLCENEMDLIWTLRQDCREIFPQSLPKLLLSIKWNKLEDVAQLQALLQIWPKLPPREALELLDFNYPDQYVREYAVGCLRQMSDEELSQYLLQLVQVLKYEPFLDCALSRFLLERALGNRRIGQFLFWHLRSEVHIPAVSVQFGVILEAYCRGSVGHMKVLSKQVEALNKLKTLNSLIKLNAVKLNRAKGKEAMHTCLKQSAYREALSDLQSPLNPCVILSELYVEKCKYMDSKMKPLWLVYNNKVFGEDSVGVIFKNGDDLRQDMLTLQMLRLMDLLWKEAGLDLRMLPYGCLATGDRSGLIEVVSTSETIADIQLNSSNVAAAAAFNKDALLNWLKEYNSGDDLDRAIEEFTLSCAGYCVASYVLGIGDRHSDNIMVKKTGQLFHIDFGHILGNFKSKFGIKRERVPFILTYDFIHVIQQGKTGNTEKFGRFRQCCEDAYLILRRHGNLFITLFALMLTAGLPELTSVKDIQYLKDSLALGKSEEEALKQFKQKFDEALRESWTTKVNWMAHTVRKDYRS
Sequence (P27986 whole entry partner): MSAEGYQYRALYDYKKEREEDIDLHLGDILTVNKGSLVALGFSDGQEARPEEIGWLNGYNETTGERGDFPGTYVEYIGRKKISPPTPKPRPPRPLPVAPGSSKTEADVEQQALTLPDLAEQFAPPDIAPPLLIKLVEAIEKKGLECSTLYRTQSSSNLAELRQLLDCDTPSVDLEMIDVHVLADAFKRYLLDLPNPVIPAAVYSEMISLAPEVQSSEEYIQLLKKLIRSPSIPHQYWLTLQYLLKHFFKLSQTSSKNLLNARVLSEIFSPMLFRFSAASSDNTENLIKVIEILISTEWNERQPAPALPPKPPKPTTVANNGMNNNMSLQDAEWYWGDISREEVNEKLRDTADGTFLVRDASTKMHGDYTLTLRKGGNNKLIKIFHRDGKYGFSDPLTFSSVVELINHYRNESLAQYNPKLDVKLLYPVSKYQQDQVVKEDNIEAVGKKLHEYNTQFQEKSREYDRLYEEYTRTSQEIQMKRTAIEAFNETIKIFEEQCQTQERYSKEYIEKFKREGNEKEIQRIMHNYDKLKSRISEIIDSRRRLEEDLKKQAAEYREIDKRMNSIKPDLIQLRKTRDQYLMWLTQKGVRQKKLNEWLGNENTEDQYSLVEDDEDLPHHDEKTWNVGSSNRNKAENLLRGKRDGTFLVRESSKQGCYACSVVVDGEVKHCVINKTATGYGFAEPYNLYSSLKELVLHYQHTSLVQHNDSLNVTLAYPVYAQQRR
Assay: PI 3-Kinase (human) HTRF assay, p110β/p85α
Format: biochemical
Conditions: read-out: PI3K β IC50
The following molecules are listed with their measured IC50 values.
quantity_kind: IC50

INSERT INTO results (molecule, reported_value) VALUES
  ('CC1CN(C(=O)c2cnc3ccc(-c4ccc5oc(N)nc5c4)cn23)CCN1 (stereo not drawn)', '< 1 µM'),
  ('CC1CN(c2cnc3ccc(-c4ccc5oc(N)nc5c4)cc3n2)CCN1 (stereo not drawn)', '< 0.1 µM'),
  ('Nc1nc2ccc(-c3ccc4ncc(C(=O)N5CCOCC5)n4c3)cc2o1', '< 1 µM'),
  ('Nc1nc2cc(-c3ccc4ncc(-c5ccncc5)nc4c3)ccc2o1', '< 10 µM'),
  ('CN1CCN(C(=O)C2CN(c3cnc4ccc(-c5ccc6oc(N)nc6c5)cc4n3)C2)CC1', '< 1 µM'),
  ('Nc1nsc2cc(-c3ccc4nccc(-c5ccncc5)c4c3)ccc12', '< 1 µM'),
  ('CN1CCN(c2cnc3ccc(-c4ccc5nc(N)oc5c4)cc3n2)CC1', '< 0.1 µM'),
  ('CN1CC(C(=O)N2CCN(c3cnc4ccc(-c5ccc6oc(N)nc6c5)cc4n3)CC2)C1', '< 1 µM'),
  ('COC(=O)N1CCN(c2cnc3ccc(-c4ccc5oc(N)nc5c4)cc3n2)CC1', '< 1 µM');
